Biological target: T1, rat serum albumin (rat, UniProt P02770 25-608)
T1 construct: Bought protein, immobilized on a CM5 chip by amine coupling; also called Rat SA
Assay: SPR (Biacore 8K), albumin immobilized on CM5 chip, 25 C, 1:1 kinetic fit
Reported koff values follow for various binders
The answer is to be given in s⁻¹; state only the numeric part.

Binder | koff (s⁻¹)
RLN Analog 6 (other, Single-chain fusion: RLN2 B chain (desB1) - L2 - RLN2 A chain - PGPQ-repeat L1 - VHH (C-terminal)) SWMEEVIKLCGRELVRAQIAICGMSTWSGGGSGGSGGGQLYSALANKCCHVGCTKRSLARFCPGPQPGPQPGPQPGPQPGPQPGPQPGPQPGPQEVQLLESGGGLVQPGGSLRLSCAASGRYIDETAVAWFRQAPGKEREFVAGIGGGVDITYYADSVKGRFTISRDNSKNTLYLQMNSLRPEDTAVYYCAARPGRPLITSKVADLYPYWGQGTLVTVSSPP | 0.0048
RLN Analog 5 (other, Single-chain fusion: RLN2 B chain (desB1) - L2 - RLN2 A chain - (G4Q)5 L1 - VHH (C-terminal)) SWMEEVIKLCGRELVRAQIAICGMSTWSGGGSGGSGGGQLYSALANKCCHVGCTKRSLARFCGGGGQGGGGQGGGGQGGGGQGGGGQEVQLLESGGGLVQPGGSLRLSCAASGRYIDETAVAWFRQAPGKEREFVAGIGGGVDITYYADSVKGRFTISRDNSKNTLYLQMNSLRPEDTAVYYCAARPGRPLITSKVADLYPYWGQGTLVTVSSPP | 0.0072

// switching to the query binder
Prompt: Find the recorded koff belonging to RLN Analog 10 (other, Single-chain fusion: RLN2 B chain (desB1) - L2 - RLN2 A chain - (PGPQ)8 L1 - VHH (C-terminal)) SWMEEVIKLCGRELVRAQIAICGMSTWSGGGSGGSGGGQLYSALANKCCHVGCTKRSLARFCPGPQPGPQPGPQPGPQPGPQPGPQPGPQPGPQEVQLLESGGGLVQPGGSLRLSCAASGRYIDETAVAWFRQAPGKGREFVAGIGGGVDITYYADSVKGRFTISRDNSKNTLYLQMNSLRPEDTAVYYCAARPGRPLITSKVADLYPYWGQGTLVTVSSPP and report it.
Response: 0.0049
